TESTED ON: T1, P157S
T1 chain: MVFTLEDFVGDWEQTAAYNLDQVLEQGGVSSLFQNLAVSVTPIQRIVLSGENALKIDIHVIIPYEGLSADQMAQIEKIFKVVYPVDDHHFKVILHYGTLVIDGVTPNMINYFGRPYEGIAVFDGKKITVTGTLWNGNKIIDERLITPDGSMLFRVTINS
MEASUREMENT SETUP: modification not given
pKd: −log10 of the molar value.

>  <BINDER>
NVSGWRLFKKISN [NLpep78]

>  <pKd>
7.82

$$$$
